Cited source for all entries: paper PMC10165889

Format: in vitro ADME
experimental_parameters: RED assay
experimental_endpoint: PB (human plasma binding) (%)
Kindly answer with a numeric value in %, unit omitted.

> print(dat)
                                   compound      experimental.endpoint  endpoint.value
1  Cc1sc2c(c1C)C(c1ccc(Cl)cc1)=N[C@@H](CC(=O)Nc1ccc(O)cc1)c1nnc(C)n1-2 [1c, birabresib, reference compound]  PB (human plasma binding)            97.3
2  COC(=O)C(Cc1c[nH]cn1)NC(=O)C[C@@H]1N=C(c2ccc(Cl)cc2)c2c(sc(C)c2C)-n2c(C)nnc21 (stereo partly shown) [1j]  PB (human plasma binding)            92.7
3  Cc1sc2c(c1C)C(c1ccc(Cl)cc1)=N[C@@H](CC(=O)NCc1ccon1)c1nnc(C)n1-2 [1h]  PB (human plasma binding)            93.5

# context switch: different compound, same PB (human plasma binding)
The recorded PB (human plasma binding) for Cc1sc2c(c1C)C(c1ccc(Cl)cc1)=N[C@@H](CC(=O)Nc1nccs1)c1nnc(C)n1-2 [1o] is 98.2

---

protocol_summary: in vitro
experimental_parameters: human, Caco-2, Caco2 A/B (Papp), A to B
This section presents compounds with their documented Papp values.
Kindly answer with a numeric value in ×10⁻⁶ cm/s, unit omitted.

Here's what some known entries look like.
> print(dat)
                                chem.smiles  endpoint.value
1  Cc1sc2c(c1C)C(c1ccc(Cl)cc1)=N[C@@H](CC(=O)NCc1ccccn1)c1nnc(C)n1-2            9.84
2  Cc1sc2c(c1C)C(c1ccc(Cl)cc1)=N[C@@H](CC(=O)Nc1nccs1)c1nnc(C)n1-2            1.91

# context switch: different compound, same Papp
The recorded Papp for Cc1sc2c(c1C)C(c1ccc(Cl)cc1)=N[C@@H](CC(=O)NCCO)c1nnc(C)n1-2 is 0.7

---

protocol_summary: in vitro
experimental_parameters: human, Caco-2
This section presents molecules with their documented Papp B→A values.
Kindly answer with a numeric value in ×10⁻⁶ cm/s, unit omitted.

> print(dat)
                                chem.smiles  experimental.endpoint  units.symbol  endpoint.value
1  Cc1sc2c(c1C)C(c1ccc(Cl)cc1)=N[C@@H](CC(=O)Nc1nccs1)c1nnc(C)n1-2               Papp B→A    ×10⁻⁶ cm/s            4.11
2  Cc1sc2c(c1C)C(c1ccc(Cl)cc1)=N[C@@H](CC(=O)NCCO)c1nnc(C)n1-2               Papp B→A    ×10⁻⁶ cm/s            8.33

# context switch: different molecule, same Papp B→A
The recorded Papp B→A for Cc1sc2c(c1C)C(c1ccc(Cl)cc1)=N[C@@H](CC(=O)NCc1ccccn1)c1nnc(C)n1-2 is 56.8

---

protocol_summary: in vitro
experimental_parameters: human, microsomes
This section presents compounds with their documented log10 of half-life values.
On a log10 scale: recorded half-life, unit min.

Here's what some known entries look like.
> print(dat)
                                   compound  experimental.endpoint  endpoint.value
1  Cc1sc2c(c1C)C(c1ccc(Cl)cc1)=N[C@@H](CC(=O)NCc1cn(C)cn1)c1nnc(C)n1-2     log10 of half-life            1.48
2  Cc1sc2c(c1C)C(c1ccc(Cl)cc1)=N[C@@H](CC(=O)NCc1ccccc1)c1nnc(C)n1-2     log10 of half-life            0.78
3  Cc1sc2c(c1C)C(c1ccc(Cl)cc1)=N[C@@H](CC(=O)Nc1nccs1)c1nnc(C)n1-2     log10 of half-life            1.82
4  Cc1sc2c(c1C)C(c1ccc(Cl)cc1)=N[C@@H](CC(=O)NCc1c[nH]nn1)c1nnc(C)n1-2     log10 of half-life            1.56
5  Cc1sc2c(c1C)C(c1ccc(Cl)cc1)=N[C@@H](CC(=O)NCCO)c1nnc(C)n1-2     log10 of half-life            2.28

The recorded log10 of half-life for Cc1sc2c(c1C)C(c1ccc(Cl)cc1)=N[C@@H](CC(=O)NCC(=O)O)c1nnc(C)n1-2 is 2.83

The recorded log10 of half-life for COC(=O)C(Cc1c[nH]cn1)NC(=O)C[C@@H]1N=C(c2ccc(Cl)cc2)c2c(sc(C)c2C)-n2c(C)nnc21 (stereo partly drawn) is 2.45

The recorded log10 of half-life for Cc1sc2c(c1C)C(c1ccc(Cl)cc1)=N[C@@H](CC(=O)NCc1ccccn1)c1nnc(C)n1-2 is 0.78

The recorded log10 of half-life for Cc1sc2c(c1C)C(c1ccc(Cl)cc1)=N[C@@H](CC(=O)NCc1cn(C)nn1)c1nnc(C)n1-2 is 1.48
